Provide the reported IC50 of each item.
biological target: KDR (VEGFR2) (Homo sapiens (Human)); assay: Kinase inhibition, Mobility Shift Assay (VEGFR2); type: biochemical
Sequence (P35968 790-1356): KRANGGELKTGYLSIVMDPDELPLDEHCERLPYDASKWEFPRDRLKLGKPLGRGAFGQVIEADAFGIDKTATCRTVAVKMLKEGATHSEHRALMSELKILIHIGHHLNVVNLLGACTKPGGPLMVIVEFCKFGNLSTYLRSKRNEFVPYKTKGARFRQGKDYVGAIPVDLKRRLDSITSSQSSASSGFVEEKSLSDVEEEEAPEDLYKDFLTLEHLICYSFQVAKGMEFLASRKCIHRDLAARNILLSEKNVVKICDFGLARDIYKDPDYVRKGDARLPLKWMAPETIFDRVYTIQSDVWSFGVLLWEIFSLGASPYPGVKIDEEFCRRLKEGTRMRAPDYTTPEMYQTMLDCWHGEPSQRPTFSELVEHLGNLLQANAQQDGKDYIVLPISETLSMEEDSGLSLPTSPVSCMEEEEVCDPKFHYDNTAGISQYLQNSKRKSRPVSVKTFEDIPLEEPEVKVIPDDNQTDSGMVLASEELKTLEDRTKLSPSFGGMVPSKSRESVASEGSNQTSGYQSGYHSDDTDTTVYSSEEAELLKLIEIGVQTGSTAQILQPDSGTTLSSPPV

Output measured IC50 for this item: CNC(=O)c1ccccc1Sc1ccc2c(/C=C/c3ccc(CN4CCCC4)cn3)n[nH]c2c1 [Compound I-74]
1 to 10 nM

Output measured IC50 for this item: O=C(NC1CC1)c1ccccc1Sc1ccc2c(/C=C/c3cc(CCN4CCCC4)ccn3)n[nH]c2c1 [Compound I-133]
1 to 10 nM

Output measured IC50 for this item: CCN(CC)CCc1ccc(/C=C/c2n[nH]c3cc(Sc4cc(F)ccc4C(=O)NC4CC4)ccc23)nc1 [Compound I-108]
≤ 1 nM

Output measured IC50 for this item: CCN(CC)Cc1ccc(/C=C/c2n[nH]c3cc(Sc4cc(F)ccc4C(=O)NC4CC4)ccc23)nc1 [Compound I-83]
≤ 1 nM

Output measured IC50 for this item: O=C(NC1CC1)c1ccccc1Sc1ccc2c(/C=C/c3ccc(CCCN4CCCC4)cn3)n[nH]c2c1 [Compound I-59]
≤ 1 nM

Output measured IC50 for this item: O=C(NC1CC1)c1cccc(F)c1Sc1ccc2c(/C=C/c3cccc(CCN4CCCC4)n3)n[nH]c2c1 [Compound I-128]
10 to 100 nM

Output measured IC50 for this item: O=C(NC1CC1)c1cccc(F)c1Sc1ccc2c(/C=C/c3cccc(CCCN4CCCC4)n3)n[nH]c2c1 [Compound I-124]
10 to 100 nM

Output measured IC50 for this item: CNC(=O)c1ccccc1Sc1ccc2c(/C=C/c3ccc(OCC4CCCN4)cn3)n[nH]c2c1 (stereo not drawn) [Compound I-14]
1 to 10 nM

Output measured IC50 for this item: CNC(=O)c1ccccc1Sc1ccc2c(/C=C/c3ccccn3)ncn2c1 [Compound I-26]
> 100 nM

Output measured IC50 for this item: CCN(CC)Cc1ccc(/C=C/c2n[nH]c3cc(Sc4ccc(F)cc4C(=O)NC4CC4)ccc23)nc1 [Compound I-84]
1 to 10 nM

Output measured IC50 for this item: CNC(=O)c1ccc(F)cc1Sc1ccc2c(/C=C/c3ccc(CN4CCCC4)cn3)n[nH]c2c1 [Compound I-94]
1 to 10 nM

Output measured IC50 for this item: CCNC(=O)c1cccc(F)c1Sc1ccc2c(/C=C/c3cc(CN4CCCC4)ccn3)n[nH]c2c1 [Compound I-114]
> 100 nM

Output measured IC50 for this item: O=C(NC1CC1)c1ccccc1Nc1ccc2c(/C=C/c3ccc(CN4CCCC4)cn3)n[nH]c2c1 [Compound I-82]
≤ 1 nM

Output measured IC50 for this item: CNC(=O)c1cccc(F)c1Sc1ccc2c(/C=C/c3ccc(OCCN4CCCC4)cn3)n[nH]c2c1 [Compound I-33]
1 to 10 nM

Output measured IC50 for this item: O=C(NC1CC1)c1ccccc1Sc1ccc2c(/C=C/c3cccc(CCCN4CCCC4)n3)n[nH]c2c1 [Compound I-121]
≤ 1 nM
